experiment: in vitro; conditions: dog, microsomes, NADPH-Free T1/2

>  <compound>
CN1[C@@H]2CC[C@H]1C[C@@H](OC(=O)c1c[nH]c3cc(F)ccc13)C2

>  <half-life at 1 μM>
> 4 h

$$$$
>  <compound>
CN1[C@@H]2CC[C@H]1C[C@@H](OC(=O)c1c[nH]c3ccccc13)C2 [Compound F03, tropisetron, reference compound]

>  <half-life at 1 μM>
> 4 h

$$$$

----------
assay: in vitro; conditions: dog, microsomes, NADPH-Dependent CLint
# Lookup of reported microsomal CLint at 1 μM keyed by entry
endpoint_name: microsomal CLint at 1 μM

>  <compound>
CN1[C@@H]2CC[C@H]1C[C@@H](OC(=O)c1c[nH]c3cc(F)ccc13)C2

>  <endpoint_name>
microsomal CLint at 1 μM

>  <obs_value>
45.7 µL/min/mg

$$$$
>  <compound>
CN1[C@@H]2CC[C@H]1C[C@@H](OC(=O)c1c[nH]c3ccccc13)C2 [Compound F03, tropisetron, reference compound]

>  <endpoint_name>
microsomal CLint at 1 μM

>  <obs_value>
43.5 µL/min/mg

$$$$
>  <compound>
CC(=O)CC(c1ccccc1)c1c(O)c2ccccc2oc1=O (stereo not drawn)

>  <endpoint_name>
microsomal CLint at 1 μM

>  <obs_value>
< 9.6 µL/min/mg

$$$$

Values compiled from patent US20190134000A1.
